# TARGET SYSTEM: UniProtKB P81908
# Sequence (P81908 whole entry): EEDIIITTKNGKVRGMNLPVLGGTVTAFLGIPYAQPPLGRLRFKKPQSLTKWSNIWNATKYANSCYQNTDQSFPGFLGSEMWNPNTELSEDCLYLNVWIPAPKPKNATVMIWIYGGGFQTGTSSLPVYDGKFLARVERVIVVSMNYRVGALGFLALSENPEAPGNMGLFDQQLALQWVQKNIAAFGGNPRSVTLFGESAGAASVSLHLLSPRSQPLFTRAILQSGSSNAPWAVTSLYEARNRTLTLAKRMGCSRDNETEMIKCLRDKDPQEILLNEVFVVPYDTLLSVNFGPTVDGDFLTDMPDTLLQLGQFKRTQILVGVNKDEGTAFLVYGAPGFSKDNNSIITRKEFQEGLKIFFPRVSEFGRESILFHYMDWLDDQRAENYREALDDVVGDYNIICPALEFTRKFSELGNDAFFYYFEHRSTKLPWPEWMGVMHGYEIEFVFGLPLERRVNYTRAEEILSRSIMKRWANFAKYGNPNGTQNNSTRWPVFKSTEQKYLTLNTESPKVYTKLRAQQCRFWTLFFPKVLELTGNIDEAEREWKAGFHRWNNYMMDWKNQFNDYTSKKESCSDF
# METHOD SUMMARY: Inhibition of equine BuChE by Ellman's method
QUANTITY: pIC50
Give bare numbers, as −log10 of the molar value.

Ask | # input compound: COc1ccc2[nH]cc(CCNC(=O)CN(CCC3CCN(Cc4ccccc4)CC3)C(=O)/C=C/c3ccc(O)c(OC)c3)c2c1 ; wanted: its pIC50
Reply | 7.98

---

# TARGET SYSTEM: Cholinesterase (Homo sapiens)
Would you mind telling me the reported pIC50 of each entry?
Numbers only, as −log10 of the molar value.

Go through the list and state pIC50 for each entry.
1. COc1ccc(/C=C/C(=O)Nc2cc[n+](Cc3cccc(F)c3)cc2)cc1OC
2. COc1ccc(/C=C/C(=O)Nc2cc[n+](Cc3ccc(F)cc3)cc2)cc1OC.[Br-]

Reply |
1: 8.32; 2: 8.36

---

# TARGET SYSTEM: Amine oxidase [flavin-containing] A (Homo sapiens, UniProt P21397)
# Sequence (P21397 whole entry): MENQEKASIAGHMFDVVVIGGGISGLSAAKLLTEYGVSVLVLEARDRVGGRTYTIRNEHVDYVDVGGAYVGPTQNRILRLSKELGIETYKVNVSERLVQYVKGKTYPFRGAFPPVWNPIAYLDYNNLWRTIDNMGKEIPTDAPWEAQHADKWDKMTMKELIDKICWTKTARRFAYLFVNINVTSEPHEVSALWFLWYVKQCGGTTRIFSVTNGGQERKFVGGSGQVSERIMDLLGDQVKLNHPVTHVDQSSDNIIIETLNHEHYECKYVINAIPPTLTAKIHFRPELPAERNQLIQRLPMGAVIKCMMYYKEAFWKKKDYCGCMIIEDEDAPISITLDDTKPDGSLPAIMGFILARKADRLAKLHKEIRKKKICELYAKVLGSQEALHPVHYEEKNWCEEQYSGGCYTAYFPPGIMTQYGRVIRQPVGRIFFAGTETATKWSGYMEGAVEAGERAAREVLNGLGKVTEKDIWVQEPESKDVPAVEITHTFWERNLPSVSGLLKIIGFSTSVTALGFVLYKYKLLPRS
# METHOD SUMMARY: Inhibition of recombinant human MAO-A assessed as measuring amount of 4-hydroxyquinoline using kynuramine as substrate incubated for 30 mins by fluorescence spectrophotometry
QUANTITY: pIC50
One number for each entry, as −log10 of the molar value.

Ask | # input molecule: COc1cc(/C=C/C(=O)N2CCc3ccccc3C2)ccc1OCCCCN(CNCc1ccccc1)CNCc1ccccc1 ; wanted: its pIC50
Reply | 5.20

---

# TARGET SYSTEM: Cholinesterase (Homo sapiens, UniProt P06276)
# Sequence (P06276 whole entry): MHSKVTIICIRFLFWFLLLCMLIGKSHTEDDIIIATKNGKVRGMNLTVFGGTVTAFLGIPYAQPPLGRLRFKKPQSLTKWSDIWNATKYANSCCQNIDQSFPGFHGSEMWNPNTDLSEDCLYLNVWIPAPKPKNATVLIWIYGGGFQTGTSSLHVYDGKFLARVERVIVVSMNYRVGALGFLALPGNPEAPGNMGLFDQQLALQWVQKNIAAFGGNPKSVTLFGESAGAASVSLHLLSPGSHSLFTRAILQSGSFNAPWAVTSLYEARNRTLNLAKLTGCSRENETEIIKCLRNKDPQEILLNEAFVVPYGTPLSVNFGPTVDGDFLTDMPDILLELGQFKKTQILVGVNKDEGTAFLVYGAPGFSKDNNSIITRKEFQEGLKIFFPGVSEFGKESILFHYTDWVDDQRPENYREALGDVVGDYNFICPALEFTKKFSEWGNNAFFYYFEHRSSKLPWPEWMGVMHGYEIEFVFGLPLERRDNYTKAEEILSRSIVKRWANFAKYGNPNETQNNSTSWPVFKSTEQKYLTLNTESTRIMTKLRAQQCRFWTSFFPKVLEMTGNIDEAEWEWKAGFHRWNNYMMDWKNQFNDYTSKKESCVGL
# METHOD SUMMARY: Inhibition of human BuchE preincubated for 6 mins followed by substrate addition and measured upto 3 mins using acetylthiocholine iodide as substrate by Ellman's method
QUANTITY: pIC50
Numbers only, as −log10 of the molar value.

Ask | # input compound: COc1cc(/C=C/C(=O)OCCCCCN(C)Cc2cccc(OC(=O)N(C)C)c2)ccc1O ; wanted: its pIC50
Reply | 9.23
